target: Endothelin-1 receptor (Homo sapiens)
Sequence (P25101 whole entry): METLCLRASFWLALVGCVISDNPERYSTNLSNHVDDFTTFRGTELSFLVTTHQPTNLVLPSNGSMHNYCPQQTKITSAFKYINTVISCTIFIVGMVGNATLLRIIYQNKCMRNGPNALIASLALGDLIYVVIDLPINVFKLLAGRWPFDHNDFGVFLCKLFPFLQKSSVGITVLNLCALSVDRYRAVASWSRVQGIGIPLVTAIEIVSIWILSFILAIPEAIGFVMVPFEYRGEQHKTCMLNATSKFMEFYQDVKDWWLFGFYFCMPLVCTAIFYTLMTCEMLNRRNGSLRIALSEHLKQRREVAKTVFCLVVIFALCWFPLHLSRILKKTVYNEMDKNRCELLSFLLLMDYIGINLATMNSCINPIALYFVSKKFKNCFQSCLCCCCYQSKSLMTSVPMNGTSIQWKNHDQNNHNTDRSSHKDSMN
Entries and their IC50 values follow.
Experimental endpoint: IC50 (nM)

{"columns": ["Cpd smiles", "Experimental endpoint", "Uom", "Reading"],
 "data": [
  ["Cc1cc(C)c(NC(=O)c2sccc2S(=O)(=O)Nc2onc(C)c2Cl)c(-c2ncco2)c1", "IC50", "nM", 0.08],
  ["Cc1cc(C)c(NC(=O)c2sccc2S(=O)(=O)Nc2onc(C)c2Cl)c(Cl)c1", "IC50", "nM", 0.09],
  ["CCCS(=O)(=O)c1cc(C)cc(C)c1NC(=O)c1sccc1S(=O)(=O)Nc1onc(C)c1Cl", "IC50", "nM", 0.06],
  ["CC(=O)c1cc(C)cc(C)c1NC(=O)c1sccc1S(=O)(=O)Nc1onc(C)c1C", "IC50", "nM", 0.08]
]}
